For reference, the following log10 of Ki results for the protein given by its sequence were taken from various sources.
Target sequence: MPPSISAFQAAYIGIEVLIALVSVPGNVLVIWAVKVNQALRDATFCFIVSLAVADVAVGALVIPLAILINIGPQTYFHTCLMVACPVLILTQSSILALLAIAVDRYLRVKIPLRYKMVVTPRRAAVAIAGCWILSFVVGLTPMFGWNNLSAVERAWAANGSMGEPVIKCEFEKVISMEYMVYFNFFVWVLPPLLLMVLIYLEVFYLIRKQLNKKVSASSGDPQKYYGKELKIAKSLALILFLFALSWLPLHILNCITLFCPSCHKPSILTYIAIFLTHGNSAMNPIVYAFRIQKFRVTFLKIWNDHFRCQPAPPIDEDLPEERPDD
Scale: decimal log of Ki, Ki in nM.

| Compound | Meas Value |
| --- | --- |
| Cn1c(=O)c2[nH]c(-c3cccc(OCC(=O)N4CCCCCC4)c3)nc2n(C)c1=O | 3.39 |

*Q* Find the measured log10 of Ki of Cn1c(=O)c2[nH]c(-c3ccc(OCC(=O)N4CCCCC4)cc3)nc2n(C)c1=O and report it.
*A* 2.62

*Q* Recall and state the measured log10 of Ki for Cc1cc(-c2sc(NC(=O)N3CCOC(C(N)=O)C3)nc2-c2cccc(C#N)c2)cc(C)n1 (stereo unspecified) .
*A* 1.83

*Q* Return log10 of Ki (reported value) for this compound: Cc1cc(-c2sc(NC(=O)N3CCC4(CCCC(=O)N4)CC3)nc2-c2cccc(C#N)c2)cc(C)n1
*A* 2.75

*Q* Please give the documented log10 of Ki of Cc1cc(-c2sc(NC(=O)N3CCOC[C@@H]3CO)nc2-c2cccc(C#N)c2)cc(C)n1
*A* 1.59

*Q* Complete the entry with log10 of Ki for CCNC(=O)C1OC(n2cnc3c(N)nc(C#CCCCc4ccccc4)nc32)C(O)C1O (stereo unspecified)
*A* 2.26
